# assayProtocol: Rat pharmacokinetics after intravenous administration
# Assay type: in vivo, Sprague-Dawley rats
# conditionDetails: Sprague-Dawley, plasma, 1.5 mg/kg

{"molecule": "CC[C@@]1(O)C(=O)OCc2c1cc1n(c2=O)Cc2cc3cc(O)ccc3nc2-1 [free 10-HCPT, 10-Hydroxy camptothecin]", "resultUnits": "min", "half-life": 10}
